B1: Pistol ribozyme (parent)
chain: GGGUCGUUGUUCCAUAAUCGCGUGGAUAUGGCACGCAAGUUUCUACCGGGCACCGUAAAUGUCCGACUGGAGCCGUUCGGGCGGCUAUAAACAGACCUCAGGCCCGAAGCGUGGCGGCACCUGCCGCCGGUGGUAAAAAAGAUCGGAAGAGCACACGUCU

variants of: B1; assay: aptazyme ON/OFF ratio, guanine; higher = stronger switching; co-transcriptional cleavage with and without guanine
experimentalReadout: aptazyme ON/OFF ratio
// keep it numeric: no unit symbol after the value

The following variants have reported results that may help.
mutationLabel	observed
U7C U8C U10A U11C C12U C13A	1.08
G9A U10G C12U C13U	1.05
U8C G9C U10A U11A C12G C13U	1.12
U8A U10A U11G C13G	1.14
U7G U8A G9U U10G U11G C13A	1.3

// query // lookup aptazyme ON/OFF ratio for U7A U8G C12G C13G
// result 1.27

// query // lookup aptazyme ON/OFF ratio for U7G U8C G9A U11A C12A
// result 1.2

// query // lookup aptazyme ON/OFF ratio for U7C U8A G9U U11C C13G
// result 1.03

// query // lookup aptazyme ON/OFF ratio for U7C U8C G9A U10G U11G C12A
// result 1.23

// query // lookup aptazyme ON/OFF ratio for U7C U8G G9C U10G U11G C12A C13G
// result 1.11

// query // lookup aptazyme ON/OFF ratio for U7G G9A U11C C12A
// result 1.34

// query // lookup aptazyme ON/OFF ratio for U7G U8A G9U U11C C13G
// result 1.05

// query // lookup aptazyme ON/OFF ratio for U8C G9C U10A U11A C12A C13U
// result 1.08
